The measured values listed here are drawn from paper doi:10.1101/2025.07.20.665728.

IC50: recorded values
Target: hMR1 protein (Homo sapiens, UniProt Q95460)
Construct: plasmids encoding for the extracellular domains of MR1, β2m, and the AF-7 TCRα and TCRβ chains; made in house
Sequence (Q95460 23-302 limits assumed): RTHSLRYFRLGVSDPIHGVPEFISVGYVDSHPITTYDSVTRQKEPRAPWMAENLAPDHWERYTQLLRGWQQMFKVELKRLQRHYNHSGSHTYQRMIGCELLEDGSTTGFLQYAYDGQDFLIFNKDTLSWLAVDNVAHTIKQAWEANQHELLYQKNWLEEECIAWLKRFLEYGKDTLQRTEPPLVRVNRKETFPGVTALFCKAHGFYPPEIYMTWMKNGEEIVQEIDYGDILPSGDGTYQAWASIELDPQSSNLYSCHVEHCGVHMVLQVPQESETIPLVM
Sequence (P61769 21-119 partner): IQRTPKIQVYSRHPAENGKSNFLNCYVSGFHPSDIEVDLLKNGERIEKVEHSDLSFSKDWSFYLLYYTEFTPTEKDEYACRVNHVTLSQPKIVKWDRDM
Assay: Fluorescence polarization (FP)-based cell-free MR1 binding assay (competition with JYM20)
Conditions: competition with 10 nM JYM20 for 100 nM empty hMR1, 37°C; read-out: IC50
Report the value in µM with no unit label.

{"Structure smiles string": "O=c1nc2[nH]c3ccccc3nc-2c(=O)[nH]1", "IC50, µM": 13.4}

Recall and state the measured IC50 for Cc1cc2nc3[nH]c(=O)[nH]c(=O)c3nc2cc1C .
12.5
